- METHOD_SUMMARY: qHTS of pediatric cancer cell lines to identify multiple opportunities for drug repurposing: Primary screen for SK-N-MC cells (AID 1347093); note: potency is the fitted concentration of half-maximal effect
- PROTOCOL_CONDITIONS: SK-N-MC viability, CellTiter-Glo luminescence, 48 h; series mostly up to 46 µM
Records with an inconclusive call do not appear. The source made the active and inactive calls. Calls come from the whole dose curve; as a rule, active = well fitted cell-killing curve with a large enough effect; inconclusive = small, poorly fitted or top-dose-only effect; inactive = no such curve, though single readings can be large or run the other way.
OBSERVABLE: Potency

INSERT INTO results (compound, recorded_result) VALUES
  ('C[C@]12CC[C@@H]3c4ccc(OC(=O)N(CCCl)CCCl)cc4CC[C@H]3[C@@H]1CC[C@@H]2O', 'inactive'),
  ('CCc1cc2c(s1)-n1c(C)nnc1CN=C2c1ccccc1Cl', 'inactive'),
  ('CC(C)N(CCC(C(N)=O)(c1ccccc1)c1ccccn1)C(C)C (stereo unspecified)', 'inactive'),
  ('CC(=O)NC1CCSC1=O (stereo unspecified)', 'inactive'),
  ('Clc1ccc(C(c2ccc(Cl)cc2)C(Cl)(Cl)Cl)cc1', '5.31 µM (active)'),
  ('NC(=O)c1cc([N+](=O)[O-])cc([N+](=O)[O-])c1', 'inactive'),
  ('COc1cc(CC(C)N)cc(OC)c1OC (stereo unspecified)', 'inactive'),
  ('CCCN(CCC)C(=O)Cc1c(-c2ccc(Cl)cc2)nc2ccc(Cl)cn12', '16.8 µM (active)'),
  ('CCC1(c2ccc(N)cc2)CCC(=O)NC1=O (stereo unspecified)', 'inactive'),
  ('CNCC(=O)c1ccc(O)c(O)c1', 'inactive');

INPUT: Please look up its Potency: CC(C)(C)NCC(O)c1cc(Cl)c(N)c(C(F)(F)F)c1 (stereo unspecified)
OUTPUT: inactive

INPUT: What value of Potency has been recorded for this entry: C=CCC1(C(C)CC)C(=O)NC(=O)NC1=O (stereo unspecified)
OUTPUT: inactive

INPUT: Which Potency reading was recorded for the compound "Nc1ccc([As](=O)(O)O)cc1" ?
OUTPUT: inactive

INPUT: Fill in the blank: the reported Potency of "O=c1[nH]oc2c1CCNC2" is ____.
OUTPUT: inactive

INPUT: Look at this compound and give its reported Potency. CN1C(=O)CCS(=O)(=O)C1c1ccc(Cl)cc1 (stereo unspecified)
OUTPUT: inactive

INPUT: Recorded Potency for "C[C@](O)(CS(=O)(=O)c1ccc(F)cc1)C(=O)Nc1ccc(C#N)c(C(F)(F)F)c1" , please?
OUTPUT: 0.469 µM (active)

INPUT: Would you kindly share the measured Potency for "CCCCCCCCCC(=O)O[C@H]1CC[C@H]2[C@@H]3CCC4=CC(=O)CC[C@@H]4[C@H]3CC[C@]12C" ?
OUTPUT: inactive

INPUT: What Potency value was documented for this compound, "CCN[C@@H](C)Cc1cccc(C(F)(F)F)c1" ?
OUTPUT: inactive

INPUT: Need Potency, item "COc1c2c(cc3c1OCO3)CCN(C)C2"
OUTPUT: inactive

INPUT: What Potency value was documented for this compound, "NCCc1ccc(O)cc1" ?
OUTPUT: inactive

* * *

- Test system: P93_24
- METHOD_SUMMARY: qHTS profiling for inhibitors of Plasmodium falciparum proliferation (AID 504749); note: nearly all actives have a fitted effect of over 60% in size
- PROTOCOL_CONDITIONS: P. falciparum in erythrocytes, SYBR Green DNA, 72 h; series mostly up to 28.7 µM
Results filed as inconclusive are left out. Activity calls are given as the source filed them. Calls follow the shape of the dose curve; as a rule, active = well fitted inhibition curve with a large enough effect; inconclusive = small, poorly fitted or top-dose-only effect; inactive = flat fitted curve, though single readings scatter.
Choose the fitting class; nothing outside active, inactive is accepted.

Below are worked cases with known answers.
INSERT INTO assay_data (compound, assigned_label) VALUES
  ('CN1C(=O)COc2c(C(=O)NC3CN4CCC3CC4)cc(Cl)cc21 (stereo not given)', 'inactive'),
  ('Nc1nc(N)nc(NC2CC2)n1', 'inactive'),
  ('CCCCCCC(=O)CCCCCC/C=C/C[C@@H](O)[C@H](O)[C@@](N)(CO)C(=O)O', 'inactive'),
  ('CCC1(CC)C(=O)C=CNC1=O', 'inactive');

INPUT: # lookup: test call for "CC(C)NC(C)C"
OUTPUT: inactive

INPUT: In this assay, the call recorded for "O=C(Nc1ccc(Br)cc1)c1cc(Br)cc(Br)c1O" was what?
OUTPUT: inactive

INPUT: How did this test come out for "COP(=S)(OC)Oc1ccc(S(=O)(=O)N(C)C)cc1" ?
OUTPUT: inactive

INPUT: Per the records of this test, what outcome belongs to "COP(=S)(OC)SCN1C(=O)c2ccccc2C1=O" ?
OUTPUT: inactive

INPUT: Name the outcome recorded for CC(C)=CC1C(C(=O)OCN2C(=O)C3=C(CCCC3)C2=O)C1(C)C (stereo not given) in the assay.
OUTPUT: inactive
